Attribution: patent US9365489B2

Here, each record is paired with measured effect on methanogenesis (%) data.
# System: methanogenesis in rumen liquor
# Assay Name: In vitro test for methane production (modified Hohenheim Forage value Test)
# Details: 1% DM; 8 h, 39° C.; average of two experiments; vs control
Test Readout: effect on methanogenesis (%)

[
  {
    "Compound": "CNC(=O)CCCCO[N+](=O)[O-] [drawing 37]",
    "Test Readout": "effect on methanogenesis (%)",
    "Reported": "−98"
  },
  {
    "Compound": "NC(=O)CCCCO[N+](=O)[O-] [drawing 36]",
    "Test Readout": "effect on methanogenesis (%)",
    "Reported": "−98"
  },
  {
    "Compound": "CCOC(=O)C1CCC(O[N+](=O)[O-])CC1 (stereo not shown)",
    "Test Readout": "effect on methanogenesis (%)",
    "Reported": "−98"
  },
  {
    "Compound": "CCOC(=O)CCO[N+](=O)[O-] [drawing 19]",
    "Test Readout": "effect on methanogenesis (%)",
    "Reported": "−100"
  }
]
